Item-by-item account of pIC50
biological target: IDO1 (Homo sapiens, UniProt P14902); test: IDO1 Cellular Assay in HeLa Cells Stimulated with IFNγ; type: cell-based; details: read-out: HeLa Cell Potency, IC50
Sequence (P14902 whole entry): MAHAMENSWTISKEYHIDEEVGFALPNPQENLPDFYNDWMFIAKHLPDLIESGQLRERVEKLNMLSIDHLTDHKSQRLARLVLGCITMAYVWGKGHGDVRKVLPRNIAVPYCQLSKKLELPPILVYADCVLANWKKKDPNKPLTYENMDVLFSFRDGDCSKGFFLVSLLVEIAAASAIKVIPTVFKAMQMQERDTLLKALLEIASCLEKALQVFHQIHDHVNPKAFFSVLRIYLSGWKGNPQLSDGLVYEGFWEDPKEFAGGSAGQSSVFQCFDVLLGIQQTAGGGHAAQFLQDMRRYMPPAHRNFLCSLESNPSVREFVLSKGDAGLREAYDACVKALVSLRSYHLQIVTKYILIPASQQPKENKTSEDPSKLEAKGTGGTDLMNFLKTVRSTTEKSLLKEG
pIC50: −log10 of the molar value.

>  <Compound>
Cc1cccc(N2CCN(C(=O)Cn3nc(C(=O)N4CC[C@@H](CO)C4)c4c3C[C@H]3C[C@@H]43)CC2)c1C

>  <pIC50>
8.82

$$$$
>  <Compound>
Cc1cccc(N2CCN(C(=O)Cn3nc(C(=O)N4CC5CCC(C4)N5C)c4c3C[C@H]3C[C@@H]43)CC2)c1C

>  <pIC50>
8.24

$$$$
>  <Compound>
Cc1cccc(N2CCN(C(=O)Cn3nc(C(=O)N4CCC(F)(F)[C@H](O)C4)c4c3CCC4)CC2)c1C (single isomer, unassigned)

>  <pIC50>
7.20

$$$$
>  <Compound>
Cc1cccc(N2CCN(C(=O)Cn3nc(C(=O)N4CCC(O)CC4)c4c3CC(C(F)F)C4)CC2)c1C (racemic) [Example 16]

>  <pIC50>
8.66

$$$$
>  <Compound>
Cc1cccc(N2CCN(C(=O)Cn3nc(C(=O)N4CCC(O)CC4)c4c3CCC4)C3(CC3)C2)c1C

>  <pIC50>
8.49

$$$$
>  <Compound>
Cc1cccc(N2CCN(C(=O)Cn3nc(C(=O)N4CCC(C)(O)CC4C)c4c3C[C@H]3C[C@@H]43)CC2)c1C (stereo partly shown)

>  <pIC50>
8.52

$$$$
>  <Compound>
Cc1c(Cl)cccc1N1CCN(C(=O)Cn2nc(C(=O)N3CCC(O)CC3)c3c2CCC(F)C3)CC1 (stereo not shown) [Example 366]

>  <pIC50>
8.63

$$$$

* * *

biological target: IDO1 (Homo sapiens, UniProt P14902); assay: IDO1 Human Whole blood Assay; format: cell-based; design: Human whole blood was drawn in sodium heparin coated tubes from healthy internal donors; from tissue; host or cells: human whole blood from healthy donors, stimulated with LPS and IFNγ; details: LPS and IFNγ stimulated, 18 h, read-out: Human Whole Blood Potency, IC50
pIC50: −log10 of the molar value.

>  <Compound>
Cc1cccc(N2CCN(C(=O)Cn3nc(C(=O)N4CC[C@H](CO)C4)c4c3CCC4)CC2)c1C [Example 83]

>  <pIC50>
5.46

$$$$
>  <Compound>
Cc1cccc(N2CCN(C(=O)Cn3nc(C(=O)N4C[C@@H](C)O[C@@H](C)C4)c4c3C3CC3C4)CC2)c1C (stereo partly shown) [Example 449]

>  <pIC50>
6.27

$$$$
>  <Compound>
Cc1cccc(N2CCN(C(=O)Cn3nc(C(=O)N4CCC(O)C(F)C4)c4c3CCC4)C3(CC3)C2)c1C (single isomer, unassigned) [Example 396]

>  <pIC50>
6.20

$$$$
>  <Compound>
COC1CCN(C(=O)c2nn(CC(=O)N3CCN(c4cccc(C)c4C)CC3)c3c2CCC3)CC1 [Example 126]

>  <pIC50>
6.52

$$$$
>  <Compound>
Cc1cccc(N2CCN(C(=O)Cn3nc(C(=O)N4CCO[C@@H](CO)C4)c4c3CCCC4)CC2)c1C [Example 470]

>  <pIC50>
7.51

$$$$
>  <Compound>
Cc1c(Cl)cccc1N1CCN(C(=O)Cn2nc(C(=O)N3CCC(O)CC3)c3c2CCC(F)(F)C3)CC1 [Example 379]

>  <pIC50>
6.76

$$$$
>  <Compound>
Cc1cccc(N2CCN(C(=O)Cn3nc(C(=O)N4CCN5CCOC[C@@H]5C4)c4c3CCC4)CC2)c1C [Example 174]

>  <pIC50>
6.32

$$$$
